Source listed as patent US20150105252A1.

Tested on: lambsquarters
TEST_PROTOCOL: Test C preemergence
Type: in vivo, Chenopodium album
RUN_CONDITIONS: preemergence, 250 g ai/ha; scale 0 to 100, 0 is no effect, 100 is complete control
Catalogue of Lambsquarters plant response rating readings, one per entry.
# respond with the number and nothing more

# annotated cases, reported Lambsquarters plant response rating shown
CCc1cc(C(=O)NCC(F)(F)F)nn1Cc1ccnc(SC(F)(F)F)c1; 100
CCOc1cc(C(=O)NOC(C)C)nn1Cc1ccnc(C(F)(F)F)c1; 100
CCNC(=O)c1cc(CC)n(Cc2cc(C(F)(F)F)nn2C)n1; 98
O=C(NCC(F)(F)F)c1cc(CCF)n(Cc2ccnc(C(F)(F)F)c2)n1; 100

Let us move to another entry and its Lambsquarters plant response rating.
Under lambsquarters: Lambsquarters plant response rating value of `CCCNC(=O)c1cc(CCF)n(Cc2ccnc(C(F)(F)F)c2)n1` ?
98

* * *

Listing of recorded Plant response rating, Sedge, Umbrella by entry.
Tested on: sedge, umbrella
TEST_PROTOCOL: Test C flooded paddy test
Format: in vivo, Cyperus difformis
RUN_CONDITIONS: Flood, 250 g ai/ha; scale 0 to 100
A bare number is all that is needed in reply.

Cc1cc(C(=O)NCC(F)(F)F)nn1Cc1ccnc(C(F)(F)F)c1; 90
CCc1cc(C(=O)NOC(C)C)nn1Cc1cccc(OC(F)(F)F)c1; 90
CCCc1cc(C(=O)NCC(F)(F)F)nn1Cc1ccnc(OC(F)F)c1; 95
CCc1cc(C(=O)NCC2CC2)nn1Cc1cccc(OC(F)(F)F)c1; 80

What value of measured Plant response rating, Sedge, Umbrella is listed for `O=C(NC1CC1)c1cc(CCF)n(Cc2ccnc(C(F)(F)F)c2)n1` ?
100

* * *

The entries below are paired with their reported Plant response rating, Wheat.
Tested on: wheat
TEST_PROTOCOL: Test C postemergence
Format: in vivo, Triticum aestivum
RUN_CONDITIONS: postemergence; 125 g ai/ha; scale 0 to 100, 0 no effect, 100 complete control
Keep the answer to the number alone.

CCc1cc(-c2ccc(C(F)(F)F)cc2)nn1Cc1ccnc(C(F)(F)F)c1; 5
CCCNC(=O)c1cc(CC)n(Cc2nc(C(F)(F)F)nn2C)n1; 0
CCONC(=O)c1cc(CC)n(Cc2ccnc(OC(F)F)c2)n1; 10
CCc1cc(C(=O)NOC(C)C)nn1Cc1cccc(OC(F)(F)F)c1; 20

Please look at the following compound next.
Give recorded Plant response rating, Wheat with wheat for the following compound: `CCc1cc(C(=O)NCC(F)(F)F)nn1Cc1cccc(OC(F)(F)F)c1`
20

* * *

Tested on: kochia
TEST_PROTOCOL: Test C postemergence
Assay type: in vivo, Kochia scoparia
RUN_CONDITIONS: postemergence, 62 g ai/ha; scale 0 to 100
QUANTITY_KIND: Kochia plant response rating
// keep it numeric: no unit symbol after the value

// worked examples, Kochia plant response rating included
CCc1cc(C(=O)NCC(F)(F)F)nn1Cc1cc(C(F)(F)F)nn1C; 60
CCCNC(=O)c1cc(CC)n(Cc2ccnc(C(F)(F)F)c2)n1; 60
CCc1cc(-c2ccc(C(F)(F)F)cc2)nn1Cc1ccnc(C(F)(F)F)c1; 90
CCCNC(=O)c1cc(CC)n(Cc2nc(C(F)(F)F)nn2C)n1; 75
CCOc1cc(C(=O)NOC(C)C)nn1Cc1ccnc(C(F)(F)F)c1; 70

# context switch: different molecule, same Kochia plant response rating
Reported Kochia plant response rating for `CCc1cc(C(=O)NCC(F)(F)F)nn1Cc1ccnc(Br)c1` : what is it?
85
